Source of measurements: patent US20160222014A1

Measured pIC50, listed per entry.
- Tgt: recombinant human FAK1 (Homo sapiens, UniProt Q05397)
- Construct: fused on or other part: N-terminal 6xHis tag
- Sequence (Q05397 422-680 limits assumed): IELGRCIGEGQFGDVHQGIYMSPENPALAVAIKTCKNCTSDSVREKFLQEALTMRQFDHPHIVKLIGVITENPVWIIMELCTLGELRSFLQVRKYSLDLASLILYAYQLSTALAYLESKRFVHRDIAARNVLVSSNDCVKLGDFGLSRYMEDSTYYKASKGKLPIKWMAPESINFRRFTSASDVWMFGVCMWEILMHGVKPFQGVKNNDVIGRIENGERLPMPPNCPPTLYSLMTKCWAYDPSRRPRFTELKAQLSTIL
- Assay explanation: FAK1 HTRF assay
pIC50: −log10 of the molar value.

Substance smiles | Tgt | pIC50
COc1cc(N2CCN(CCO)CC2)ccc1Nc1cc2c(ccn2S(=O)(=O)c2cccc3cccnc23)cn1 | recombinant human FAK1 (Homo sapiens, UniProt Q05397) | > 7.70
O=C1CCc2cc(Nc3cc4nn(Cc5ccccc5OC(F)F)cc4cn3)ccc2N1 | recombinant human FAK1 (Homo sapiens, UniProt Q05397) | < 6.00
CN(c1ncccc1Cn1ccc2cnc(Nc3ccc4c(c3)CC(=O)N4)nc21)S(C)(=O)=O | recombinant human FAK1 (Homo sapiens, UniProt Q05397) | > 7.70
C[C@H](O)CN1CCN(c2ccc(Nc3ncc4ccn(Cc5ccccc5N(C)S(C)(=O)=O)c4n3)cc2)CC1 | recombinant human FAK1 (Homo sapiens, UniProt Q05397) | > 7.70
